subject_of_test: A-beta 1-42 aggregates formed by precipitation with zinc (Homo sapiens)
Sequence (P05067 672-713 limits assumed): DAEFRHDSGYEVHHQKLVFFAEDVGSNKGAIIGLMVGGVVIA
method_description: Assay 17 synthetic amyloid plaque disaggregation assay (thioflavin T)
measurement_setup: Aβ1-42/Zn/ThT aggregates, 2 hours, 37 degrees
readout_type: EC50 (µM)
Write the value in µM as a bare number.

[in] Please report the recorded EC50 for Br.O=c1c2c(Cl)cc(Cl)c(O)c2ncn1Cc1cccc(Cn2cnc3c(O)c(Cl)cc(Cl)c3c2=O)n1 .
[out] 11.7

[in] Please report the recorded EC50 for Br.O=c1c2c(Cl)cc(Cl)c(O)c2ncn1Nc1ccc(F)cc1F .
[out] 17

# next compound below
[in] Please report the recorded EC50 for CCN(CC)Cc1nc2c(O)c(Cl)cc(Cl)c2c(=O)[nH]1 .
[out] 13.2
